# STUDY_TARGET: UniProt P10635
ENDPOINT: pIC50
# reply with the number alone; pIC50 is -log10 of concentration in mol/L

Query block: Look up pIC50: O=C(Nc1cc2ncncc2cc1OCc1cccc(Cl)c1)Nc1cccc2ccccc12
Result block: 5.29

====

Below, each entry is listed alongside its reported Ratio IC50.
# TEST_DETAILS: Selectivity index, ratio of IC50 for normal human astrocytes to IC50 for human GBM1 cells
Write no unit; give the number alone.

// below: answered molecules
Query block: Look up Ratio IC50: O=C(Nc1cc2ncncc2cc1OCc1ccc(F)cc1)Nc1cccc2ccccc12
Result block: 1.2

Query block: And the next one, O=C(Nc1ccc(C(F)(F)F)cc1)Nc1cc2ncncc2cc1OCc1ccccc1 ?
Result block: 1.5

Continuing:
Query block: Look up Ratio IC50: O=C(Nc1cccc(F)c1)Nc1cc2ncncc2cc1OCc1ccccc1Cl
Result block: 2.9

Query block: And the next one, O=C(Nc1ccc(C(F)(F)F)cc1)Nc1cc2ncncc2cc1OCc1cccc(Cl)c1 ?
Result block: 2

Query block: And the next one, O=C(Nc1ccc(C(F)(F)F)cc1)Nc1cc2ncncc2cc1OCc1cccc(F)c1 ?
Result block: 2

Query block: And the next one, O=C(Nc1cc2ncncc2cc1OCc1ccccc1Cl)Nc1cccc2ccccc12 ?
Result block: 1

====

# TEST_DETAILS: Antiproliferative activity against human GBM1 cells assessed as reduction in cell viability incubated for 72 hrs by WST-1 method
# Type: functional, cell-based
# CONDITION_SET: GBM1, 72 h
ENDPOINT: pIC50
# reply with the number alone; pIC50 is -log10 of concentration in mol/L

Query block: Look up pIC50: O=C(Nc1ccc(C(F)(F)F)cc1)Nc1cc2ncncc2cc1OCc1cccc(F)c1
Result block: 5.42

Query block: And the next one, O=C(Nc1ccccc1F)Nc1cc2ncncc2cc1OCc1cccc(F)c1 ?
Result block: 5.10

Query block: And the next one, O=C(Nc1cccc(Cl)c1)Nc1cc2ncncc2cc1OCc1ccccc1 ?
Result block: 5.24

====

Below, each entry is listed alongside its reported inhibition.
# STUDY_TARGET: Translocator protein (Rattus norvegicus)
# TEST_DETAILS: Displacement of [3H]PK11195 from TSPO receptor in Sprague-Dawley rat cerebral cortex membrane at 100 nM by radiometric competitive assay
# Assay type: tissue-based
I'd appreciate it if you wrote the number followed by its unit.

// below: answered compounds
Query block: Look up inhibition: O=C(Nc1cc2ncncc2cc1OCc1cccc(Cl)c1)Nc1cccc2ccccc12
Result block: 15%

Query block: And the next one, CN1C(=O)CN=C(c2ccccc2)c2cc(Cl)ccc21 ?
Result block: 34%

Query block: And the next one, O=C(Nc1cccc(Cl)c1)Nc1cc2ncncc2cc1OCc1ccccc1Cl ?
Result block: 14%

Query block: And the next one, O=C(Nc1cc2ncncc2cc1OCc1cccc(F)c1)Nc1cccc2ccccc12 ?
Result block: 34%

Query block: And the next one, O=C(Nc1ccc(Cl)c(Cl)c1)Nc1cc2ncncc2cc1OCc1cccc(F)c1 ?
Result block: 16%

Query block: And the next one, CCC(C)N(C)C(=O)c1cc2ccccc2c(-c2ccccc2Cl)n1 (configuration not stated) ?
Result block: 90%

Attention now turns to another entry.
Query block: Look up inhibition: O=C(Nc1ccc(Cl)c(Cl)c1)Nc1cc2ncncc2cc1OCc1ccccc1Cl
Result block: 37%

====

# TEST_DETAILS: Antiproliferative activity against human GBM2 cells assessed as reduction in cell viability incubated for 72 hrs by WST-1 method
# Format: functional, cell-based
# CONDITION_SET: GBM2, 72 h
ENDPOINT: pIC50
# reply with the number alone; pIC50 is -log10 of concentration in mol/L

// below: answered compounds
Query block: Look up pIC50: O=C(Nc1ccc(Cl)c(Cl)c1)Nc1cc2ncncc2cc1OCc1ccccc1Cl
Result block: 5.89

Query block: And the next one, O=C(Nc1ccc(Cl)c(Cl)c1)Nc1cc2ncncc2cc1OCc1cccc(F)c1 ?
Result block: 5.82

Continuing:
Query block: Look up pIC50: O=C(Nc1cc2ncncc2cc1OCc1ccc(F)cc1)Nc1cccc2ccccc12
Result block: 5.35

Query block: And the next one, CCc1c2c(nc3ccc(OC(=O)N4CCC(N5CCCCC5)CC4)cc13)-c1cc3c(c(=O)n1C2)COC(=O)[C@]3(O)CC ?
Result block: 5.62

Query block: And the next one, CC[C@@]1(O)C(=O)OCc2c1cc1n(c2=O)Cc2cc3c(CN(C)C)c(O)ccc3nc2-1 ?
Result block: 6.89

Query block: And the next one, O=C(Nc1ccc(C(F)(F)F)cc1)Nc1cc2ncncc2cc1OCc1cccc(Cl)c1 ?
Result block: 5.33

Query block: And the next one, O=C(Nc1ccc(C(F)(F)F)cc1)Nc1cc2ncncc2cc1OCc1ccccc1 ?
Result block: 5.07

Query block: And the next one, O=C(Nc1ccc(Cl)c(Cl)c1)Nc1cc2ncncc2cc1OCc1ccccc1F ?
Result block: 5.22

Query block: And the next one, O=C(Nc1ccccc1F)Nc1cc2ncncc2cc1OCc1ccccc1F ?
Result block: 5.44

====

# STUDY_TARGET: Cytochrome P450 1A2 (Homo sapiens)
# Sequence (P05177 whole entry): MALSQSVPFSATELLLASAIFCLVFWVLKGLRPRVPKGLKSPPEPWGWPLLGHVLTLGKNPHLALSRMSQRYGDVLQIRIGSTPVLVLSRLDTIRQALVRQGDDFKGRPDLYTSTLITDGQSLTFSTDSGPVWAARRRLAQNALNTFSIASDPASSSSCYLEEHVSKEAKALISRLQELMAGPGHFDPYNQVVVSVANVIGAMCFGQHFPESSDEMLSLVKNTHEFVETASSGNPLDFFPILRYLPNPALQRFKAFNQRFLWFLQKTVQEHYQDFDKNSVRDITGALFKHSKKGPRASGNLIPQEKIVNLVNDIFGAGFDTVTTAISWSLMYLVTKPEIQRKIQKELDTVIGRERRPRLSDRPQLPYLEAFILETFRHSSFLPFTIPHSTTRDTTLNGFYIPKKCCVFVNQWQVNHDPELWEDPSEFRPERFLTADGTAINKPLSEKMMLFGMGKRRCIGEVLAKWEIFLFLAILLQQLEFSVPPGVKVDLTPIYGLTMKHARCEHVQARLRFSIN
pIC50: −log10 of the molar value.
ENDPOINT: pIC50

Query block: Look up pIC50: O=C(Nc1cc2ncncc2cc1OCc1cccc(Cl)c1)Nc1cccc2ccccc12
Result block: < 5.00

====

# STUDY_TARGET: UniProt Q12809
# TEST_DETAILS: Displacement of [3H]astemizole from human ERG potassium channel expressed in HEK293 cell membrane after 1 hr
pIC50: −log10 of the molar value.
ENDPOINT: pIC50

Query block: Look up pIC50: O=C(Nc1cc2ncncc2cc1OCc1cccc(Cl)c1)Nc1cccc2ccccc12
Result block: < 5.00

====

Below, each entry is listed alongside its reported inhibition.
# STUDY_TARGET: UniProtKB P16257
# TEST_DETAILS: Displacement of [3H]PK11195 from TSPO receptor in Sprague-Dawley rat cerebral cortex membrane at 1 uM by radiometric competitive assay
# Format: tissue-based
Entry rule: numbers only, all in %.

// below: answered compounds
Query block: Look up inhibition: O=C(Nc1ccc(Cl)c(Cl)c1)Nc1cc2ncncc2cc1OCc1ccccc1Cl
Result block: 57

Query block: And the next one, CN1C(=O)CN=C(c2ccccc2)c2cc(Cl)ccc21 ?
Result block: 85

Query block: And the next one, O=C(Nc1cccc(Cl)c1)Nc1cc2ncncc2cc1OCc1ccccc1Cl ?
Result block: 23

Query block: And the next one, CCC(C)N(C)C(=O)c1cc2ccccc2c(-c2ccccc2Cl)n1 (configuration not stated) ?
Result block: 100

Continuing:
Query block: Look up inhibition: O=C(Nc1cc2ncncc2cc1OCc1cccc(Cl)c1)Nc1cccc2ccccc12
Result block: 59

Query block: And the next one, O=C(Nc1cc2ncncc2cc1OCc1cccc(F)c1)Nc1cccc2ccccc12 ?
Result block: 53

Query block: And the next one, O=C(Nc1ccc(Cl)c(Cl)c1)Nc1cc2ncncc2cc1OCc1cccc(F)c1 ?
Result block: 42

====

# STUDY_TARGET: Translocator protein (Rattus norvegicus)
# TEST_DETAILS: Displacement of [3H]PK11195 from TSPO receptor in Sprague-Dawley rat cerebral cortex membrane at 10 uM by radiometric competitive assay
# Type: tissue-based
ENDPOINT: inhibition (%)
Entry rule: numbers only, all in %.

Query block: Look up inhibition: O=C(Nc1ccc(Cl)c(Cl)c1)Nc1cc2ncncc2cc1OCc1ccccc1Cl
Result block: 84

Query block: And the next one, O=C(Nc1cc2ncncc2cc1OCc1cccc(F)c1)Nc1cccc2ccccc12 ?
Result block: 75

Query block: And the next one, O=C(Nc1cccc(Cl)c1)Nc1cc2ncncc2cc1OCc1ccccc1Cl ?
Result block: 80

Query block: And the next one, CN1C(=O)CN=C(c2ccccc2)c2cc(Cl)ccc21 ?
Result block: 97

Query block: And the next one, O=C(Nc1ccc(Cl)c(Cl)c1)Nc1cc2ncncc2cc1OCc1cccc(F)c1 ?
Result block: 86

Query block: And the next one, O=C(Nc1cc2ncncc2cc1OCc1cccc(Cl)c1)Nc1cccc2ccccc12 ?
Result block: 85
